This collection of values is drawn from patent US12116343B2.

Listed molecules paired with reported pIC50
- Measured target: G1 APOL1 (Homo sapiens, UniProt O14791, I384M/S342G)
- Construct: expressed in transfected cells
- Assay protocol: Acute APOL1 Thallium Assay with inducible stable clones of HEK 293 cells
- Format: cell-based
- Study conditions: HEK 293 T-Rex cells expressing G1 APOL1; read-out: Thallium Assay (IC50)
pIC50: −log10 of the molar value.

Task: Give pIC50 (G1 APOL1 (Homo sapiens, UniProt O14791, I384M/S342G)) of the following molecule: O=C1NCCC1NC(=O)[C@H]1C[C@@H](c2c(-c3ccc(F)cc3)[nH]c3c(F)cc(F)cc32)C1 (stereo partly shown)
Result: < 6.00

Task: Also need CN(C(=O)[C@H]1C[C@H](c2c(-c3ccc(F)cc3)[nH]c3c(F)cc(F)cc32)C1)C1(CO)CC1 , thanks.
Result: 6.00 to 6.60

Task: Next molecule up: O=C([C@H]1C[C@H](c2c(-c3ccc(F)cc3)[nH]c3c(F)cc(F)cc32)C1)N1CCOC[C@@H]1CO
Result: 6.00 to 6.60

Task: Ok, now O=C(NCCn1cncn1)[C@H]1C[C@H](c2c(-c3ccc(F)cc3)[nH]c3c(F)cc(F)cc32)C1
Result: > 6.60

Task: Cn1ccc(NC(=O)[C@H]2C[C@H](c3c(-c4ccc(F)cc4)[nH]c4c(F)cc(F)cc43)C2)n1 , same question.
Result: < 6.00

Next:
Task: Write down the reported pIC50 of CC(C)CC(NC(=O)[C@H]1C[C@H](c2c(-c3ccc(F)cc3)[nH]c3c(F)cc(F)cc32)C1)C(N)=O (stereo partly shown) , test system: G1 APOL1 (Homo sapiens, UniProt O14791, I384M/S342G).
Result: < 6.00

Task: Ok, now Cc1noc(CNC(=O)[C@H]2C[C@H](c3c(-c4ccc(F)cc4)[nH]c4c(F)cc(F)cc43)C2)n1
Result: > 6.60

----------
As shown below, each of these compounds has a reported IC50 value.
- Measured target: G1 APOL1 (Homo sapiens, UniProt O14791, I384M/S342G)
- Construct: expressed in transfected cells
- Sequence (O14791 28-398 S342G/I384M): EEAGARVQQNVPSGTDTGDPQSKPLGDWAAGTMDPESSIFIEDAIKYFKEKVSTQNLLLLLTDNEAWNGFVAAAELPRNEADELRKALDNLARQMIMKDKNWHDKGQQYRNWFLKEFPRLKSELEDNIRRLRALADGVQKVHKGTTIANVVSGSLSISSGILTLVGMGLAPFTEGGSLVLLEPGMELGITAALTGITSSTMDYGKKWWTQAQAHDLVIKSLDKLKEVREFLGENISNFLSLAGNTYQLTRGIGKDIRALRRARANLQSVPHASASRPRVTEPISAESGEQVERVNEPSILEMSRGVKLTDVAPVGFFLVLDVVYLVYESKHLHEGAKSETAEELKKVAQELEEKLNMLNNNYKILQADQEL
- Assay protocol: Acute APOL1 Thallium Assay with inducible stable clones of HEK 293 cells
- Assay type: cell-based
- Study conditions: Table 24, Compounds 287 to 465; read-out: Thallium Assay (IC50)
- Excerpt: Acute APOL1 Thallium Assay with Inducible Stable Clones of HEK 293 Cells Apolipoprotein L1 (APOL1) proteins form potassium-permeable cation pores in the plasma membrane. APOL1 risk variants (G1 and G2) induce greater potassium flux than G0 in HEK293 cells. […] The increase of fluorescence in the assay represents the influx of Tl+ into the cell specifically through the potassium channel (i.e. through APOL1 pores), providing a functional measurement of potassium channel/pore activity. […]

// known answers, use as guide
Task: What value of IC50 has been recorded for this entry: C[C@@H](CO)NC(=O)NC[C@H]1C[C@H](c2c(-c3ccc(F)cc3)[nH]c3c(F)cc(F)cc32)C1
Result: > 1000 nM

Task: What about this compound? O=C(NCc1cnn(CC(F)(F)F)c1)C1CC(Cc2c(-c3ccc(F)cc3)[nH]c3c(F)cc(F)cc23)C1 (centres unmarked)
Result: > 1000 nM

Task: Now consider C[C@@H](NCC1CC(c2c(-c3ccc(F)cc3)[nH]c3c(F)cc(F)cc23)C1)C(=O)N(C)C (some centres unmarked) and answer again.
Result: > 1000 nM

Task: Could you do the same for CC(C)NC(=O)CNC[C@H]1C[C@H](c2c(-c3ccc(F)cc3)[nH]c3c(F)cc(F)cc32)C1 , please?
Result: > 1000 nM

Task: Entry to check: C[C@H](CO)NC(=O)O[C@H]1C[C@H](c2c(-c3ccc(F)cc3)[nH]c3c(F)cc(F)cc32)C1
Result: 250 to 1000 nM

New cases:
Task: What value of IC50 has been reported for the following compound? Cc1ccc(CNC(=O)O[C@H]2C[C@H](c3c(-c4ccc(F)cc4)[nH]c4c(F)cc(F)cc43)C2)o1
Result: > 1000 nM

Task: Try this compound too: O=C(NCC1CCOCC1)C1CC(Cc2c(-c3ccc(F)cc3)[nH]c3c(F)cc(F)cc23)C1 (centres unmarked)
Result: > 1000 nM

Task: Also need O=C(CNC[C@H]1C[C@H](c2c(-c3ccc(F)cc3)[nH]c3c(F)cc(F)cc32)C1)NC1CC1 , thanks.
Result: 250 to 1000 nM

Task: Here is the next compound: Cc1cc(CNC(=O)O[C@H]2C[C@H](c3c(-c4ccc(F)cc4)[nH]c4c(F)cc(F)cc43)C2)on1
Result: > 1000 nM

Task: Now this one: CC1(C)CC(C)(NC(=O)NC[C@H]2C[C@H](c3c(-c4ccc(F)cc4)[nH]c4c(F)cc(F)cc43)C2)C(=O)O1 (mixture of isomers)
Result: > 1000 nM

----------
Below: a set of entries, each annotated with reported pIC50.
- Measured target: G1 APOL1 (Homo sapiens, UniProt O14791, I384M/S342G)
- Construct: expressed in transfected cells
- Sequence (O14791 28-398 S342G/I384M): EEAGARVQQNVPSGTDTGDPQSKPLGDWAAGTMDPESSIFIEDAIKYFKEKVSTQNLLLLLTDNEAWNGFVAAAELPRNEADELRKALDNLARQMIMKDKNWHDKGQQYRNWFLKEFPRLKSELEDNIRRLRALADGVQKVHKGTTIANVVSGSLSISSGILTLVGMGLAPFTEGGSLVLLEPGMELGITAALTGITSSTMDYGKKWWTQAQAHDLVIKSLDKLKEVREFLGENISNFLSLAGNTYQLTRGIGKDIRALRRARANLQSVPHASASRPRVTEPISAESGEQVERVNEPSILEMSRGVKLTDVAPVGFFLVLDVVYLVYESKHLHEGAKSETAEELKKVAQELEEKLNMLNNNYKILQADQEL
- Assay protocol: Acute APOL1 Thallium Assay with inducible stable clones of HEK 293 cells
- Format: cell-based
- Study conditions: HEK 293 T-Rex cells expressing G1 APOL1; read-out: Thallium Assay (IC50)
pIC50: −log10 of the molar value.

Task: Hello, I am looking for reported pIC50 with G1 APOL1 (Homo sapiens, UniProt O14791, I384M/S342G) for C[C@@H](CO)NC(=O)[C@H]1C[C@@H](c2c(-c3ccc(F)cc3)[nH]c3c(F)cc(F)cc32)C1 . Could you help?
Result: 6.00 to 6.60

Task: Cool, now CC(C)(NC(=O)[C@H]1C[C@H](c2c(-c3ccc(F)cc3)[nH]c3c(F)cc(F)cc32)C1)C(N)=O
Result: 6.00 to 6.60

Task: Similarly, O=C(NC1(CO)CC(F)(F)C1)[C@H]1C[C@H](c2c(-c3ccc(F)cc3)[nH]c3c(F)cc(F)cc32)C1 ?
Result: 6.00 to 6.60

Task: How about O=C(CNC(=O)[C@H]1C[C@H](c2c(-c3ccc(F)cc3)[nH]c3c(F)cc(F)cc32)C1)NC1CC1 ?
Result: < 6.00

Task: Try this compound next: O=C1NCCC1NC(=O)[C@H]1C[C@H](c2c(-c3ccc(F)cc3)[nH]c3c(F)cc(F)cc32)C1 (stereo partly drawn)
Result: > 6.60

Consider the record given below.
Task: Param readout= pIC50; system= G1 APOL1 (Homo sapiens, UniProt O14791, I384M/S342G); entry= O=C([C@H]1C[C@H](c2c(-c3ccc(F)cc3)[nH]c3c(F)cc(F)cc32)C1)N1CCCC(CO)C1 (stereo partly drawn) ; returns value.
Result: < 6.00

----------
- Measured target: G1 APOL1 (Homo sapiens, UniProt O14791, I384M/S342G)
- Construct: expressed in transfected cells
- Assay protocol: Acute APOL1 Thallium Assay with inducible stable clones of HEK 293 cells
- Format: cell-based
- Study conditions: HEK 293 T-Rex cells expressing G1 APOL1; read-out: Thallium Assay (IC50)
- Text: Acute APOL1 Thallium Assay with Inducible Stable Clones of HEK 293 Cells Apolipoprotein L1 (APOL1) proteins form potassium-permeable cation pores in the plasma membrane. APOL1 risk variants (G1 and G2) induce greater potassium flux than G0 in HEK293 cells. […] The increase of fluorescence in the assay represents the influx of Tl+ into the cell specifically through the potassium channel (i.e. through APOL1 pores), providing a functional measurement of potassium channel/pore activity. […]
pIC50: −log10 of the molar value.
Quantity kind: pIC50

Please review the entries below; each comes with its answer.
Task: Which pIC50 reading was recorded for the compound O=C1CC(NC(=O)[C@H]2C[C@H](c3c(-c4ccc(F)cc4)[nH]c4c(F)cc(F)cc43)C2)CN1 (mixture of isomers) [Compound 44] ?
Result: < 6.00

Task: And for O=C(N[C@@H]1CCOC1)[C@H]1C[C@H](c2c(-c3ccc(F)cc3)[nH]c3c(F)cc(F)cc32)C1 [Compound 19] ?
Result: 6.00 to 6.60

Task: Same for Cc1cnc(NC(=O)[C@H]2C[C@H](c3c(-c4ccc(F)cc4)[nH]c4c(F)cc(F)cc43)C2)o1 [Compound 24]
Result: < 6.00

Task: Follow-up item: CCOCC1(CNC(=O)[C@H]2C[C@H](c3c(-c4ccc(F)cc4)[nH]c4c(F)cc(F)cc43)C2)CC1 [Compound 55]
Result: < 6.00

Task: Now the same for O=C(N[C@@H](CO)C(F)(F)F)[C@H]1C[C@H](c2c(-c3ccc(F)cc3)[nH]c3c(F)cc(F)cc32)C1 [Compound 163]
Result: 6.00 to 6.60

New cases:
Task: What value of measured pIC50 is listed for CCN(C(=O)[C@H]1C[C@H](c2c(-c3ccc(F)cc3)[nH]c3c(F)cc(F)cc32)C1)C(C)CO (mixture of isomers) [Compound 111] ?
Result: < 6.00

Task: Moving on to the next compound: CS(=O)(=O)CCNC(=O)[C@H]1C[C@H](c2c(-c3ccc(F)cc3)[nH]c3c(F)cc(F)cc32)C1 [Compound 40]
Result: 6.00 to 6.60

Task: Try this compound too: CN(CC(N)=O)C(=O)[C@H]1C[C@H](c2c(-c3ccc(F)cc3)[nH]c3c(F)cc(F)cc32)C1 [Compound 51]
Result: 6.00 to 6.60

Task: # repeat for CN1CC(CNC(=O)[C@H]2C[C@H](c3c(-c4ccc(F)cc4)[nH]c4c(F)cc(F)cc43)C2)CC1=O (stereo partly shown) [Compound 70]
Result: < 6.00

Task: Likewise for CO[C@H]1CCN(C(=O)[C@H]2C[C@H](c3c(-c4ccc(F)cc4)[nH]c4c(F)cc(F)cc43)C2)C1 [Compound 95] ?
Result: < 6.00

Task: Also O=C(NCC1CCOCC1)[C@H]1C[C@H](c2c(-c3ccc(F)cc3)[nH]c3c(F)cc(F)cc32)C1 [Compound 42] , if possible.
Result: < 6.00

Task: And then COCCNC(=O)[C@H]1C[C@@H](c2c(-c3ccc(F)cc3)[nH]c3c(F)cc(F)cc32)C1 [Compound 242] , what is it?
Result: < 6.00
